- Test Details: Metabolic stability in human liver microsomes assessed as microsomal intrinsic clearance at 1 uM incubated upto 60 min in presence of NADPH by LC-MS/MS analysis
- Format: ADME, Microsome
- Run Conditions: read-out: CLH
Readout: microsomal CLint at 1 µM

query: Form field: reported microsomal CLint at 1 µM of CCCOc1c(OC)ccc2cc3[n+](cc12)CCc1cc(OC)c(OC)cc1-3.[Br-]
result: < 9.6 µL/min/mg

====

- Test Details: Metabolic stability in CD-1 mouse liver microsomes assessed as microsomal intrinsic clearance at 1 uM incubated upto 60 min in presence of NADPH by LC-MS/MS analysis
- Assay type: ADME, Microsome
- Run Conditions: read-out: CLH
Readout: microsomal CLint at 1 µM (µL/min/mg)
Report the value in µL/min/mg with no unit label.

query: Could you tell me which microsomal CLint at 1 µM is on file for CCCOc1c(OC)ccc2cc3[n+](cc12)CCc1cc(OC)c(OC)cc1-3.[Br-] ?
result: 31

====

- Test system: Platelet
- Test Details: Antiplatelet activity against ADP-induced C57BL/6J mouse platelet aggregation assessed as reduction on platelet aggregation at 2.5 to 10 uM preincubated for 10 mins followed by ADP addition
- Assay type: functional, cell-based
- Run Conditions: dose 2.5-10 µM, DDE = dose-dependent effect
Readout: Activity

| Structure Notation | Study System | Readout | Result |
| --- | --- | --- | --- |
| COc1cc2c(cc1OC)-c1cc3ccc(OC)c(OCC4CC4)c3c[n+]1CC2.[Br-] | Platelet | Activity | Dde |
| COc1cc2c(cc1OC)-c1cc3ccc(OC)c(OCc4ccccc4C#N)c3c[n+]1CC2.[Br-] | Platelet | Activity | Dde |
| CCCOc1c(OC)ccc2cc3[n+](cc12)CCc1cc(OC)c(OC)cc1-3.[Br-] | Platelet | Activity | Dde |
| COc1cc2c(cc1OC)-c1cc3ccc(OC)c(NCc4ccc(Cl)cc4)c3c[n+]1CC2.[Cl-] | Platelet | Activity | Dde |

====

- Test Details: Metabolic stability in Sprague-Dawley rat liver microsomes assessed as compound remaining at 1 uM measured after 60 mins in presence of NADPH by LC-MS/MS analysis
- Assay type: ADME, Microsome
- Run Conditions: read-out: Stability
Readout: remaining at 1 h, 1 µM (%)
All answers are understood in %, so give the number only.

query: What remaining at 1 h, 1 µM value was documented for this compound, CCCOc1c(OC)ccc2cc3[n+](cc12)CCc1cc(OC)c(OC)cc1-3.[Br-] ?
result: 79

====

- Test Details: Metabolic stability in CD-1 mouse liver microsomes assessed as liver intrinsic clearance at 1 uM incubated upto 60 min in presence of NADPH by LC-MS/MS analysis
- Type: ADME, Microsome
- Run Conditions: 1 h
Readout: CLH

query: Entry CCCOc1c(OC)ccc2cc3[n+](cc12)CCc1cc(OC)c(OC)cc1-3.[Br-] : reported CLH = ?
result: 123 mL/min/kg

====

- Test Details: Metabolic stability in Sprague-Dawley rat liver microsomes assessed as liver intrinsic clearance at 1 uM incubated upto 60 min in presence of NADPH by LC-MS/MS analysis
- Format: ADME, Microsome
- Run Conditions: 1 h
Readout: CLH

query: Tell me the measured CLH of CCCOc1c(OC)ccc2cc3[n+](cc12)CCc1cc(OC)c(OC)cc1-3.[Br-] , please.
result: < 17.3 mL/min/kg
